Each item that follows carries a reported growth inhibition.
# ASSAY PROCEDURE: NCI Yeast Anticancer Drug Screen. Data for the mlh1 rad18 strain (AID 175)
# ASSAY CONTEXT: S. cerevisiae mlh1 rad18 strain growth inhibition, stronger effect = higher value; at 50.0 µM unless noted
This is part of a sample that, as a whole, favours compounds with a hit. Of some 79,000 tested, about 15% had one in any assay.
Note: unit % is implicit; provide only the numeric part.

Cc1cc([N+](=O)[O-])ccc1P(=O)(O)O :: -7.95
O=C(CCC(=O)Nc1ccc(Cl)c(Cl)c1)Cc1nc2ccccc2o1 :: 1.1
O=C1/C(=C/c2cccnc2)SC(=S)N1Cc1ccco1 :: 1.45
Cn1cnc([N+](=O)[O-])c1Sc1ncc[nH]1 :: 2.8
CCCCCCCOC(=O)CO :: 19.4

Please supply the value of reported growth inhibition for the item CC(C)(C)c1ccc(C(C)(C)C)c(N2C(=O)c3ccc4c5ccc6c7c(ccc(c8ccc(c3c48)C2=O)c75)C(=O)N(c2cc(C(C)(C)C)ccc2C(C)(C)C)C6=O)c1
-6.8

Tell me its growth inhibition given C[N+]1(C)N=C([O-])N(c2ccccc2Cl)C1=O as the entry.
18.1

----------
Listed compounds paired with reported growth inhibition
# ASSAY PROCEDURE: NCI Yeast Anticancer Drug Screen. Data for the cln2 rad14 strain (AID 165);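 note: 0% = growth equal to vehicle treated cultures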
# ASSAY CONTEXT: S. cerevisiae cln2 rad14 strain, stronger effect = higher value; at 50.0 µM unless noted
This is part of a sample that, as a whole, favours compounds with a hit. Of some 79,000 tested, about 15% had one in any assay.
Field: numeric (%). Do not append units.

Illustrative cases are given below, each with its answer.
CCOC(OCC)c1cc(=O)[nH]c(NC(C)=O)n1 :: -11.9
C=C(c1c(C)cccc1OC(C)=O)c1c(C)cccc1OC(C)=O :: -9.1
O=C(O)CCN1C(=O)CSC1=S :: -2.4
O=C1OC(C2OC(=O)C(=O)C2C2CCCCCCC2=O)C(C2CCCCCCC2=O)C1=O (stereo unspecified) :: 32.9
O=Cc1ccc(N2CCOCC2)cc1 :: -29.6

Please supply the value of reported growth inhibition for the item C1=C(N2CCCC2)C(=[N+]2CCCC2)C(N2CCCC2)=C1
-7.25

For the compound CS(=O)(=O)OC1Cc2ccccc2C1 , report growth inhibition.
-6.1

State, in one line, measured growth inhibition of Nc1cccc2c1nc(NCCO)c1ccccc12
-4.5

----------
# ASSAY PROCEDURE: NCI Yeast Anticancer Drug Screen. Data for the bub3 strain (AID 167)
# ASSAY CONTEXT: S. cerevisiae bub3 mutant strain, stronger effect = higher value; at 50.0 µM unless noted
This is part of a sample that, as a whole, favours compounds with a hit. Of some 79,000 tested, about 15% had one in any assay.
REPORTED ENDPOINT: growth inhibition (%)
Response body: numeric value in %, unit text excluded.

COc1cc(C(=O)N(C)C)cc(OC)c1OC :: -4
O=S1(=O)C(c2ccccc2)=C1c1ccccc1 :: -11.7
CCN(CC)CCOC(=O)c1ccc(NC(=O)OCCOCCOC(=O)Nc2ccc(C(=O)OCCN(CC)CC)cc2)cc1 :: -3.1
COc1ccc(C(=[N+]=[N-])c2ccc(OC)cc2)cc1 :: -10.1
COc1ccc(C2c3c(ccc4ccccc34)Oc3ccc4ccccc4c32)cc1 :: 2.85
CN(C(=O)CCC1OCCO1)c1cc(N)ccc1OCc1ccccc1 :: 19.9
CN(C)/C=N/n1c2ccccc2c2ccccc21 :: 23.6
CCOC(=O)C1Oc2ccc([N+](=O)[O-])cc2C1(C)O (stereo not given) :: 1.85

Proceed to the following item.
Specify measured growth inhibition for COC1OC(COC(c2ccccc2)(c2ccccc2)c2ccccc2)C(O)C(O)C1O (stereo not given) .
38
